src = paper PMC4762250

test system: MCF-7 and 22Rv1; assay: Oncotest monolayer assay, results stated over both cell lines; assay type: cell-based, human; conditions: Homo sapiens; geometric mean over MCF-7 and 22Rv1; read-out: Mean IC50 values
pIC50: −log10 of the molar value.
Quantity: pIC50

Data request: What value of pIC50 has been recorded for this entry: CCOc1ccc([C@@H]2c3c(c4cccnc4c4ncccc34)N[C@@]3(O)COC(=O)[C@H]23)cc1C(F)(F)F (mixture of isomers) [Compound 8k]
Data returned: > 6.30

Data request: What value of pIC50 has been recorded for this entry: O=C1OC[C@]2(O)Nc3c(c4cccnc4c4ncccc34)[C@@H](c3cccc(C(F)(F)F)c3)[C@@H]12 (mixture of isomers) [Compound 8f]
Data returned: 6.00 to 6.30

Data request: What value of pIC50 has been recorded for this entry: COc1cc(OC(F)(F)F)ccc1[C@@H]1c2c(c3cccnc3c3ncccc23)N[C@@]2(O)COC(=O)[C@@H]12 (mixture of isomers) [Compound 8o]
Data returned: > 6.30

Data request: What value of pIC50 has been recorded for this entry: O=C1OC[C@]2(O)Nc3c(c4cccnc4c4ncccc34)[C@@H](c3ccc4c(c3)OC(F)(F)O4)[C@@H]12 (mixture of isomers) [Compound 8q]
Data returned: 6.00 to 6.30

Data request: What value of pIC50 has been recorded for this entry: O=C1OC[C@]2(O)Nc3c(c4cccnc4c4ncccc34)[C@@H](c3cc(C(F)(F)F)cc(C(F)(F)F)c3)[C@@H]12 (mixture of isomers) [Compound 8j]
Data returned: > 6.30

Data request: What value of pIC50 has been recorded for this entry: O=C1OC[C@]2(O)Nc3c(c4cccnc4c4ncccc34)[C@@H](c3ccc(SC(F)(F)F)cc3)[C@@H]12 (mixture of isomers) [Compound 8i]
Data returned: > 5.00

###

tested on: MCF-7 and 22Rv1; assay: Oncotest monolayer assay, results stated over both cell lines; assay type: cell-based, human; details: Homo sapiens; geometric mean over MCF-7 and 22Rv1; read-out: Mean IC50 values
pIC50: −log10 of the molar value.
Quantity: pIC50

Data request: What value of pIC50 has been recorded for this entry: O=C1OC[C@]2(O)Nc3c(c4cccnc4c4ncccc34)[C@@H](c3ccc(OC(F)F)cc3)[C@@H]12 (mixture of isomers)
Data returned: 6.00 to 6.30

Data request: What value of pIC50 has been recorded for this entry: Cc1ccc(OC(F)(F)F)cc1[C@@H]1c2c(c3cccnc3c3ncccc23)N[C@@]2(O)COC(=O)[C@H]12 (mixture of isomers)
Data returned: > 5.00

Data request: What value of pIC50 has been recorded for this entry: O=C1OC[C@]2(O)Nc3c(c4cccnc4c4ncccc34)[C@@H](c3cccc(S(F)(F)(F)(F)F)c3)[C@@H]12 (mixture of isomers)
Data returned: > 6.30

Data request: What value of pIC50 has been recorded for this entry: Cc1cc(OC(F)(F)F)cc([C@@H]2c3c(c4cccnc4c4ncccc34)N[C@@]3(O)COC(=O)[C@H]23)c1 (mixture of isomers)
Data returned: > 6.30

Data request: What value of pIC50 has been recorded for this entry: CSc1ccc([C@@H]2c3c(c4cccnc4c4ncccc34)N[C@@]3(O)COC(=O)[C@H]23)cc1 (mixture of isomers)
Data returned: 6.00 to 6.30

Data request: What value of pIC50 has been recorded for this entry: COc1cc([C@@H]2c3c(c4cccnc4c4ncccc34)N[C@@]3(O)COC(=O)[C@H]23)cc2c1OCO2 (mixture of isomers)
Data returned: > 5.00

Data request: What value of pIC50 has been recorded for this entry: O=C1OC[C@]2(O)Nc3c(c4cccnc4c4ncccc34)[C@@H](c3ccc(S(F)(F)(F)(F)F)cc3)[C@@H]12 (mixture of isomers)
Data returned: 6.00 to 6.30
